# credit: ChEMBL document CHEMBL3734701

Assign MIC to each entry below.
test system: Staphylococcus aureus; assay: Antibacterial activity against clinically isolated penicillin-resistant Staphylococcus aureus by broth microdilution method; format: functional
Return type: number; implicit unit µg/mL.

Any idea what its MIC is? The molecule is CC[C@H]1OC(=O)[C@@H](C)[C@H](O[C@H]2C[C@@](C)(OC)[C@@H](OC(=O)NNC(=O)/C=C/c3ccc([N+](=O)[O-])cc3)[C@H](C)O2)[C@@H](C)[C@H](O[C@H]2O[C@@H](C)C[C@@H](N(C)C)[C@@H]2O)[C@@](C)(O)C[C@H](C)CN(C)[C@@H](C)[C@@H]2OC(=O)O[C@@]12C
16

Any idea what its MIC is? The molecule is CC[C@@H]1OC(=O)[C@H](C)[C@@H](O[C@H]2C[C@@](C)(OC)[C@@H](OC(=O)NNC(=O)/C=C/c3cc(OC)c(OC)c(OC)c3)[C@H](C)O2)[C@@H](C)[C@@H](O[C@@H]2O[C@H](C)C[C@H](N(C)C)[C@H]2O)[C@](C)(O)C[C@@H](C)CN(C)[C@H](C)[C@@H](OC(=O)NCc2ccccc2)[C@]1(C)O
4

Any idea what its MIC is? The molecule is CC[C@H]1OC(=O)[C@@H](C)[C@H](O[C@H]2C[C@@](C)(OC)[C@@H](OC(=O)NNC(=O)/C=C/c3ccc(F)cc3)[C@H](C)O2)[C@@H](C)[C@H](O[C@H]2O[C@@H](C)C[C@@H](N(C)C)[C@@H]2O)[C@@](C)(O)C[C@H](C)CN(C)[C@@H](C)[C@@H]2OC(=O)O[C@@]12C
16
